In this section, each of the molecules is paired with its reported growth, % of control.
assay-protocol: qHTS profiling of the MIPE4 collection as inhibitors of Plasmodium falciparum (HB3) proliferation (AID 743347);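 note: plate controls were DMSO vehicle wells for no effect and artemisinin wells for full effect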
condition-summary: P. falciparum HB3 in erythrocytes, SYBR Green DNA, 72 h; at 28.5 µM (top of the series) unless noted
Just the number in %, nothing appended.

Completed entries (count: 6):
| molecule | unit-string | growth, % of control |
| --- | --- | --- |
| O=C(CCN1CCN(C(=O)OCc2cc(Cl)cc(Cl)c2)CC1)c1ccc2[nH]c(=O)oc2c1 | % | 105 |
| O=C(NOCC(O)CO)c1cc(Br)c(F)c(F)c1Nc1ccc(I)cc1F (configuration not stated) | % | 77.4 |
| CC(=O)OC1C(C)OC(Oc2c(-c3ccc(O)cc3)oc3cc(O)cc(O)c3c2=O)C(O)C1OC(C)=O (configuration not stated) | % | 4.99 |
| O=c1c(-c2ccc(O)cc2)coc2cc(O[C@@H]3O[C@H](CO)[C@H](O)[C@H](O)[C@H]3O)ccc12 | % | 104 |
| CC(C)(C(=O)NCC(F)(F)C(F)(F)F)C(=O)N[C@@H]1C(=O)Nc2ccccc2-c2ccccc21 | % | 10.3 |
| CC(C)=CC[C@@H](O)C1=CC(=O)c2c(O)ccc(O)c2C1=O | % | 2.71 |

Turning now to a further record.
Data request: For the molecule shown here, `CO[C@H]1C[C@@H]2CC[C@@H](C)[C@@](O)(O2)C(=O)C(=O)N2CCCC[C@@H]2C(=O)O[C@H]([C@H](C)C[C@@H]2CC[C@H](OCCO)[C@H](OC)C2)CC(=O)[C@H](C)C=C(C)[C@@H](O)[C@@H](OC)C(=O)[C@H](C)C[C@H](C)C=CC=CC=C1C` , give the reported growth, % of control.
Data returned: 3.94
